system: Pancreatic triacylglycerol lipase (Homo sapiens, UniProt P16233)
procedure.details: Negative allosteric modulator activity at human Pancreatic lipase using DDAO-ol as fluorescent substrate preincubated for 3 mins followed by substrate addition measured after 20 mins by microplate reader assay
Can you tell me IC50 for the items I'm about to list?

State the recorded IC50 for this entry: CCCOc1ccccc1C(=O)Nc1ccc(Oc2ccc(Cl)cc2)c(Cl)c1
18.3 µM

State the recorded IC50 for this entry: O=C(Nc1ccc(Oc2ccc(Cl)cc2)c(Cl)c1)c1cc(I)cc(I)c1O [RAFOXANIDE]
2.52 µM

State the recorded IC50 for this entry: O=C(Nc1ccc(Oc2ccc(Cl)cc2)c(Cl)c1)c1ccccc1Cl
15 µM

State the recorded IC50 for this entry: COc1ccc(C(=O)Nc2ccc(Oc3ccc(Cl)cc3)c(Cl)c2)c(O)c1
10 µM

State the recorded IC50 for this entry: O=C(Nc1ccc(Oc2ccccc2)cc1)c1ccccc1O
19.1 µM

State the recorded IC50 for this entry: O=C(Nc1ccc(O)cc1)c1ccccc1O
> 500 µM

State the recorded IC50 for this entry: CCCNc1ccc(C(=O)Nc2ccc(Oc3ccc(Cl)cc3)c(Cl)c2)c(O)c1
5.99 µM

State the recorded IC50 for this entry: Cc1ccc(Oc2ccc(NC(=O)c3ccccc3O)cc2)cc1
12 µM

State the recorded IC50 for this entry: CC(C)=CC[C@]12Oc3cc(O)c([C@H]4C=C(C)C[C@H](c5ccc(O)cc5O)[C@H]4C(=O)c4ccc(O)cc4O)c(O)c3C(=O)[C@@]1(O)Oc1cc(O)ccc12
3.28 µM

---

system: UniProt:P16233
Sequence (P16233 whole entry): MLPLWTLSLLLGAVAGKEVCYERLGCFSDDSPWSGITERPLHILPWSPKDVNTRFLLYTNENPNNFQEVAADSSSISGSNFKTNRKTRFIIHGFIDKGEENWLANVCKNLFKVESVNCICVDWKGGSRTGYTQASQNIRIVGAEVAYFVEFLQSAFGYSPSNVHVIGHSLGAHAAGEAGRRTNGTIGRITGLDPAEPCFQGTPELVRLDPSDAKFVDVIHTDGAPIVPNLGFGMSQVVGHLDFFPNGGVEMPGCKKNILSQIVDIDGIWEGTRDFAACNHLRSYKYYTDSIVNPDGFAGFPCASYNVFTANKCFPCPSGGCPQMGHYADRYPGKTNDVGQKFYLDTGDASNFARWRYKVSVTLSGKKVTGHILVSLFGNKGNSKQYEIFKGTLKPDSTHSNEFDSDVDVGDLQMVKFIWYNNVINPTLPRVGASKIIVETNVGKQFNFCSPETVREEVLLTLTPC
procedure.details: Negative allosteric modulator activity at human Pancreatic lipase using DDAO-ol as fluorescent substrate preincubated for 3 mins followed by substrate addition measured after 20 mins by microplate reader assay
Can you tell me IC50 for the items I'm about to list?

State the recorded IC50 for this entry: O=C(Nc1ccc(Oc2ccc(Cl)cc2)c(Cl)c1)c1ccccc1OC(F)(F)F
15.8 µM

State the recorded IC50 for this entry: Cc1ccccc1C(=O)Nc1ccc(Oc2ccc(Cl)cc2)c(Cl)c1
27.4 µM

State the recorded IC50 for this entry: O=C(Nc1ccc(Oc2ccc(Cl)cc2)c(Cl)c1)c1ccccc1
10.5 µM

State the recorded IC50 for this entry: O=C(Nc1ccc(Oc2ccc(Cl)cc2)cc1)c1ccccc1O
20.4 µM

State the recorded IC50 for this entry: O=C(Nc1ccc(Oc2ccc(Cl)cc2)c(Cl)c1)c1cc(Br)cc(Br)c1O
2.13 µM

State the recorded IC50 for this entry: O=C(Nc1ccc(Oc2ccc(Cl)cc2)c(Cl)c1)c1ccccc1F
23.7 µM

State the recorded IC50 for this entry: O=C(Nc1ccc(Oc2ccc(Cl)cc2)c(Cl)c1)c1ccccc1Br
11 µM

State the recorded IC50 for this entry: O=C(Nc1ccc(Oc2ccccc2)c(Cl)c1)c1ccccc1O
9.96 µM

State the recorded IC50 for this entry: O=C(Nc1ccc(Oc2ccc(Cl)cc2)c(Cl)c1)c1cc(Cl)cc(Cl)c1O
1.63 µM

State the recorded IC50 for this entry: COc1ccccc1C(=O)Nc1ccc(Oc2ccc(Cl)cc2)c(Cl)c1
16.7 µM

State the recorded IC50 for this entry: COc1cccc(O)c1C(=O)Nc1ccc(Oc2ccc(Cl)cc2)c(Cl)c1
26.3 µM

State the recorded IC50 for this entry: O=C(Nc1ccc(Oc2ccc(F)cc2)c(F)c1)c1ccccc1O
11.4 µM

State the recorded IC50 for this entry: O=C(Nc1ccc(Oc2ccc(Cl)cc2)c(Cl)c1)c1ccc(F)cc1O
4.27 µM

State the recorded IC50 for this entry: Nc1ccc(C(=O)Nc2ccc(Oc3ccc(Cl)cc3)c(Cl)c2)c(O)c1
6.27 µM

State the recorded IC50 for this entry: CC(C)Oc1ccc(Oc2ccc(NC(=O)c3ccccc3O)cc2)cc1
9.24 µM

State the recorded IC50 for this entry: O=C(Nc1ccc(Oc2ccc(Cl)cc2)c(Cl)c1)c1ccccc1O
6.75 µM

State the recorded IC50 for this entry: O=C(Nc1ccc(Oc2ccc(Cl)cc2)c(Cl)c1)c1ccc(Cl)cc1O
12.4 µM

State the recorded IC50 for this entry: CCCCCCNc1ccc(C(=O)Nc2ccc(Oc3ccc(Cl)cc3)c(Cl)c2)c(O)c1
12.4 µM

State the recorded IC50 for this entry: COc1ccc(Oc2ccc(NC(=O)c3ccccc3O)cc2)cc1
32.7 µM

State the recorded IC50 for this entry: O=C(Nc1ccc(Oc2ccc(Cl)cc2)c(Cl)c1)c1cc(F)cc(F)c1O
1.86 µM

---

system: Pancreatic triacylglycerol lipase (Homo sapiens, UniProt P16233)
Sequence (P16233 whole entry): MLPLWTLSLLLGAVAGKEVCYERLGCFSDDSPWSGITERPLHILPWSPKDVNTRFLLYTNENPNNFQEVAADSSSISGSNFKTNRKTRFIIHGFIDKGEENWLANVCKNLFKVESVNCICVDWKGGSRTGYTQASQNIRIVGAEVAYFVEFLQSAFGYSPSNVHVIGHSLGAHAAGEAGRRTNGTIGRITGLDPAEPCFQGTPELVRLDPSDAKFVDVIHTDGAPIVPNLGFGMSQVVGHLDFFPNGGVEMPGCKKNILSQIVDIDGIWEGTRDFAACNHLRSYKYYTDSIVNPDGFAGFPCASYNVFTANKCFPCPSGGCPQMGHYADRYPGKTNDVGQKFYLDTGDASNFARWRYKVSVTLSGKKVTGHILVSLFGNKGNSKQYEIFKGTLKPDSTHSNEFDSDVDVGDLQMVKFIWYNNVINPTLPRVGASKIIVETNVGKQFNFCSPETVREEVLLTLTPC
procedure.details: Negative allosteric modulator activity at human Pancreatic lipase assessed as inhibition of PL-mediated DDAO-ol hydrolysis by measuring inhibition constant using DDAO-ol as fluorescent substrate by Lineweaver-Burk plot analysis
Can you tell me Ki for the items I'm about to list?
Numeric answer only, unit nM assumed.

State the recorded Ki for this entry: O=C(Nc1ccc(Oc2ccc(Cl)cc2)c(Cl)c1)c1cc(F)cc(F)c1O
1670

State the recorded Ki for this entry: O=C(Nc1ccc(Oc2ccc(Cl)cc2)c(Cl)c1)c1cc(Cl)cc(Cl)c1O
1700

---

system: Pancreatic triacylglycerol lipase (Homo sapiens, UniProt P16233)
Sequence (P16233 whole entry): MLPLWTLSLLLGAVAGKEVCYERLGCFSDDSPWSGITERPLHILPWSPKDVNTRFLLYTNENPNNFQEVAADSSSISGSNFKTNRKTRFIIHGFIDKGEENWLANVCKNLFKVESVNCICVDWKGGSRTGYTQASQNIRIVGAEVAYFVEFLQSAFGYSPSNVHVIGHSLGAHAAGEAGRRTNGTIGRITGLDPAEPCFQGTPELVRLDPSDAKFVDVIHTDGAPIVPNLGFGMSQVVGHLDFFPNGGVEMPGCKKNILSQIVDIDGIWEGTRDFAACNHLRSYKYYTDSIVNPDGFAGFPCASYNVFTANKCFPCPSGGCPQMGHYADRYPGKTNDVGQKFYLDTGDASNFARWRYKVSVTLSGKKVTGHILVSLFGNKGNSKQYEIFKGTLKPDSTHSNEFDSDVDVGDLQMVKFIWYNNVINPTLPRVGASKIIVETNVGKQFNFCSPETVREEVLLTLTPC
procedure.details: Inhibition of Pancreatic lipase (unknown origin) using 4-MUO as fluorescent substrate preincubated for 3 mins followed by substrate addition measured after 20 mins by microplate reader assay
recorded.metric: IC50 (nM)
Numeric answer only, unit nM assumed.

State the recorded IC50 for this entry: CC1(C)CC[C@]2(C(=O)O)CC[C@]3(C)C(=CC[C@@H]4[C@@]5(C)CCC(=O)C(C)(C)[C@@H]5CC[C@]43C)[C@@H]2C1
490
